From: ChEMBL document CHEMBL3351505

Here the recorded diameter of the inhibition zone (DIZ) is given for each entry.
system: Candida albicans; experiment: Antifungal activity against Candida albicans NRRL Y-477 using 100 uL of test compound after 48 hrs by agar well diffusion method; format: functional
Supply the numeric figure in mm, leaving out any unit text.

Past entries and their recorded results:
INSERT INTO results (molecule, system_tested, value_type, assay_result) VALUES
  ('O=C(Cn1cc(COC(Cc2cn(CC(=O)c3ccc(Br)cc3)nn2)c2ccc(S(=O)(=O)c3ccccc3)cc2)nn1)c1ccc(Br)cc1 (centres undefined)', 'Candida albicans', 'diameter of the inhibition zone (DIZ)', 21),
  ('O=C(Cn1cc(COC(Cc2cn(CC(=O)c3ccc(F)cc3)nn2)c2ccc(S(=O)(=O)c3ccccc3)cc2)nn1)c1ccc(F)cc1 (centres undefined)', 'Candida albicans', 'diameter of the inhibition zone (DIZ)', 22),
  ('O=C(Cn1cc(CC(O)c2ccc(S(=O)(=O)c3ccccc3)cc2)nn1)c1ccc(S(=O)(=O)c2ccccc2)cc1 (centres undefined)', 'Candida albicans', 'diameter of the inhibition zone (DIZ)', 15);

Task: Given the molecule O=S(=O)(c1ccccc1)c1ccc(C(Cc2cn(Cc3ccccc3)nn2)OCc2cn(Cc3ccccc3)nn2)cc1 (centres undefined) , what is its reported diameter of the inhibition zone (DIZ)?
Result: 18

* * *

diameter of the inhibition zone (DIZ) values by entry
system: Pseudomonas aeruginosa; assay: Antibacterial activity against Pseudomonas aeruginosa ATCC 27953 using 100 uL of test compound after 24 hrs by agar well diffusion method; format: functional

# count of solved cases: 10
INSERT INTO results (compound, system_tested, assay_result) VALUES
  ('O=C(Cn1cc(CC(O)c2ccc(S(=O)(=O)c3ccccc3)cc2)nn1)c1ccc(Br)cc1 (stereo unspecified)', 'Pseudomonas aeruginosa', '25 mm'),
  ('CC(Cc1cn(CC(=O)c2ccc(Br)cc2)nn1)(OCc1cn(CC(=O)c2ccc(Br)cc2)nn1)c1ccc(S(=O)(=O)c2ccccc2)cc1 (stereo unspecified)', 'Pseudomonas aeruginosa', '26 mm'),
  ('CC(Cc1cn(CC(=O)c2ccc(S(=O)(=O)c3ccccc3)cc2)nn1)(OCc1cn(CC(=O)c2ccc(S(=O)(=O)c3ccccc3)cc2)nn1)c1ccc(S(=O)(=O)c2ccccc2)cc1 (stereo unspecified)', 'Pseudomonas aeruginosa', '19 mm'),
  ('O=C(Cn1cc(COC(Cc2cn(CC(=O)c3ccc(F)cc3)nn2)c2ccc(S(=O)(=O)c3ccccc3)cc2)nn1)c1ccc(F)cc1 (stereo unspecified)', 'Pseudomonas aeruginosa', '15 mm'),
  ('CC(O)(Cc1cn(CC(=O)c2ccc(Br)cc2)nn1)c1ccc(S(=O)(=O)c2ccccc2)cc1 (stereo unspecified)', 'Pseudomonas aeruginosa', '19 mm'),
  ('O=C(Cn1cc(COC(Cc2cn(CC(=O)c3ccccc3)nn2)c2ccc(S(=O)(=O)c3ccccc3)cc2)nn1)c1ccccc1 (stereo unspecified)', 'Pseudomonas aeruginosa', '23 mm'),
  ('O=S(=O)(c1ccccc1)c1ccc(C(Cc2cn(Cc3ccccc3)nn2)OCc2cn(Cc3ccccc3)nn2)cc1 (stereo unspecified)', 'Pseudomonas aeruginosa', '18 mm'),
  ('O=S(=O)(c1ccccc1)c1ccc(C(O)Cc2cn(Cc3ccccc3)nn2)cc1 (stereo unspecified)', 'Pseudomonas aeruginosa', '20 mm'),
  ('O=C(Cn1cc(CC(O)c2ccc(S(=O)(=O)c3ccccc3)cc2)nn1)c1ccc(S(=O)(=O)c2ccccc2)cc1 (stereo unspecified)', 'Pseudomonas aeruginosa', '17 mm'),
  ('CC(Cc1cn(Cc2ccccc2)nn1)(OCc1cn(Cc2ccccc2)nn1)c1ccc(S(=O)(=O)c2ccccc2)cc1 (stereo unspecified)', 'Pseudomonas aeruginosa', '19 mm');

Task: Can you look up diameter of the inhibition zone (DIZ) on Pseudomonas aeruginosa for O=C(Cn1cc(CC(O)c2ccc(S(=O)(=O)c3ccccc3)cc2)nn1)c1ccc(F)cc1 (stereo unspecified) ?
Result: 19 mm

Task: Now the compound CC(O)(Cc1cn(CC(=O)c2ccc(S(=O)(=O)c3ccccc3)cc2)nn1)c1ccc(S(=O)(=O)c2ccccc2)cc1 (stereo unspecified)
Result: 15 mm

Task: Check O=C(Cn1cc(CC(O)c2ccc(S(=O)(=O)c3ccccc3)cc2)nn1)c1ccccc1 (stereo unspecified) too.
Result: 20 mm

Task: For CC(O)(Cc1cn(Cc2ccccc2)nn1)c1ccc(S(=O)(=O)c2ccccc2)cc1 (stereo unspecified) then?
Result: 23 mm

Task: O=C(Cn1cc(COC(Cc2cn(CC(=O)c3ccc(S(=O)(=O)c4ccccc4)cc3)nn2)c2ccc(S(=O)(=O)c3ccccc3)cc2)nn1)c1ccc(S(=O)(=O)c2ccccc2)cc1 (stereo unspecified) , same question.
Result: 14 mm

* * *

assay: Antioxidant activity assessed as DPPH free radical scavenging activity by spectrophotometric assay; type: physicochemical
Value Type: IC50 (µg/mL)

Examples from the recorded data:
INSERT INTO measurements (molecule, value_type, assay_result) VALUES
  ('O=C(Cn1cc(COC(Cc2cn(CC(=O)c3ccc(F)cc3)nn2)c2ccc(S(=O)(=O)c3ccccc3)cc2)nn1)c1ccc(F)cc1 (stereo not given)', 'IC50', 275),
  ('O=C(Cn1cc(COC(Cc2cn(CC(=O)c3ccc(Br)cc3)nn2)c2ccc(S(=O)(=O)c3ccccc3)cc2)nn1)c1ccc(Br)cc1 (stereo not given)', 'IC50', 150);

(1) CC(Cc1cn(CC(=O)c2ccccc2)nn1)(OCc1cn(CC(=O)c2ccccc2)nn1)c1ccc(S(=O)(=O)c2ccccc2)cc1 (stereo not given)
(2) O=S(=O)(c1ccccc1)c1ccc(C(O)Cc2cn(Cc3ccccc3)nn2)cc1 (stereo not given)
(3) CC(O)(Cc1cn(CC(=O)c2ccccc2)nn1)c1ccc(S(=O)(=O)c2ccccc2)cc1 (stereo not given)
Task: Highest IC50 first, then in falling order down to the smallest. In your reply, arrange the labels in the requested order.
Result: 3, 2, 1

* * *

system: Klebsiella pneumoniae; test: Antibacterial activity against Klebsiella pneumoniae ATCC 13883 after 24 hrs by two fold serial dilution method; format: functional
The source made the active and inactive calls. The rule behind the calls is not given here.
Value Type: MIC

Recorded results for 5 compounds are shown here.
INSERT INTO assay_data (compound, assay_result) VALUES
  ('O=C(Cn1cc(COC(Cc2cn(CC(=O)c3ccc(S(=O)(=O)c4ccccc4)cc3)nn2)c2ccc(S(=O)(=O)c3ccccc3)cc2)nn1)c1ccc(S(=O)(=O)c2ccccc2)cc1 (stereo unspecified)', 'inactive'),
  ('Clc1ccccc1C(c1ccccc1)(c1ccccc1)n1ccnc1', 'inactive'),
  ('O=C(Cn1cc(COC(Cc2cn(CC(=O)c3ccc(Br)cc3)nn2)c2ccc(S(=O)(=O)c3ccccc3)cc2)nn1)c1ccc(Br)cc1 (stereo unspecified)', 'inactive'),
  ('O=C(Cn1cc(CC(O)c2ccc(S(=O)(=O)c3ccccc3)cc2)nn1)c1ccc(F)cc1 (stereo unspecified)', 'inactive'),
  ('CC(O)(Cc1cn(CC(=O)c2ccccc2)nn1)c1ccc(S(=O)(=O)c2ccccc2)cc1 (stereo unspecified)', 'inactive');

Turning to the following compound.
Task: Suppose we examine the compound CC(Cc1cn(Cc2ccccc2)nn1)(OCc1cn(Cc2ccccc2)nn1)c1ccc(S(=O)(=O)c2ccccc2)cc1 (stereo unspecified) ; what MIC value has been reported?
Result: inactive

* * *

assay: Antioxidant activity assessed as DPPH free radical scavenging activity by spectrophotometric assay; type: physicochemical
Value Type: IC50 (µg/mL)

(P) O=C(Cn1cc(COC(Cc2cn(CC(=O)c3ccc(S(=O)(=O)c4ccccc4)cc3)nn2)c2ccc(S(=O)(=O)c3ccccc3)cc2)nn1)c1ccc(S(=O)(=O)c2ccccc2)cc1 (configuration not stated)
(Q) CC(O)(Cc1cn(CC(=O)c2ccc(S(=O)(=O)c3ccccc3)cc2)nn1)c1ccc(S(=O)(=O)c2ccccc2)cc1 (configuration not stated)
(R) O=C(Cn1cc(COC(Cc2cn(CC(=O)c3ccccc3)nn2)c2ccc(S(=O)(=O)c3ccccc3)cc2)nn1)c1ccccc1 (configuration not stated)
Task: # sort list by recorded IC50, greatest to least Your task in answering is to list the labels in the requested order.
Result: P, R, Q
(P: 600 µg/mL, R: 175 µg/mL, Q: 20 µg/mL)

* * *

test system: Klebsiella pneumoniae; experiment: Antibacterial activity against Klebsiella pneumoniae ATCC 13883 using 100 uL of test compound after 24 hrs by agar well diffusion method; type: functional
Value Type: diameter of the inhibition zone (DIZ) (mm)
Form entry: value (mm) — number only.

Take a look at these entries with their results.
INSERT INTO assay_data (compound, value_type, assay_result) VALUES
  ('CC(O)(Cc1cn(CC(=O)c2ccccc2)nn1)c1ccc(S(=O)(=O)c2ccccc2)cc1 (centres undefined)', 'diameter of the inhibition zone (DIZ)', 13),
  ('CC(Cc1cn(CC(=O)c2ccccc2)nn1)(OCc1cn(CC(=O)c2ccccc2)nn1)c1ccc(S(=O)(=O)c2ccccc2)cc1 (centres undefined)', 'diameter of the inhibition zone (DIZ)', 23),
  ('O=C(Cn1cc(CC(O)c2ccc(S(=O)(=O)c3ccccc3)cc2)nn1)c1ccc(S(=O)(=O)c2ccccc2)cc1 (centres undefined)', 'diameter of the inhibition zone (DIZ)', 19);

// moving on: another record for diameter of the inhibition zone (DIZ)
Task: Klebsiella pneumoniae / diameter of the inhibition zone (DIZ) / O=C(Cn1cc(COC(Cc2cn(CC(=O)c3ccc(S(=O)(=O)c4ccccc4)cc3)nn2)c2ccc(S(=O)(=O)c3ccccc3)cc2)nn1)c1ccc(S(=O)(=O)c2ccccc2)cc1 (centres undefined) : value?
Result: 13
